assay: amyloid nucleation score (Sup35N fusion, yeast selection) (log enrichment); library NNK2; higher = more nucleation; inactive = no reads after selection;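 note: zero at mode of non-aggregating sequences after 7 days selection at 30°C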
Assign class by amyloid nucleation score: not lower than 0.1 means TRUE; lower than 0.1 means FALSE.

1) CTRVLW FALSE
2) DSVIWVCIVWRRSSSTMCVM TRUE
3) SFLFMKSTIRFIEL FALSE
4) IANWSKYSASTCLVMTHAMA FALSE
5) ILLFQSAYHKSIEIWGNESF TRUE
6) ISSYEVELDALIVWGDTSSG FALSE
7) CSLAFVHRAIFSMSLLHSET TRUE
8) LAGGCRRTPAVINRLFVKTA TRUE
9) CLRGDNKISLDRSGGMTFGQ TRUE
10) ADWQYHSVYMNTVRDKCLAQ FALSE
11) DAEIMMCYCKFSGFGSITWR TRUE
12) ICQWRSWLKSTVIFCTRYDF TRUE
13) VERFLPVCFIPLISKRWTMY TRUE
14) PSAVRTILVTAI FALSE
